# assay_explanation: yeast display, Sf9 membrane polyspecificity reagent, FACS + sequencing; frameworks hold sequencing errors
endpoint_label: polyreactivity (PSR sort gate)

• QVQLVESGGGLVQAGGSLRLSCAASGLTFPGYAMGWYRQAPGKERELVAGISKRGGSTYYADSVKGRFTISRDNAKNTVYLQMNSLKPEDTAVYYCAAVYRSQSQPYDYWGQGTQVTVSS = high polyreactivity
• QGPHVESGGGLVQAGGSLRLSCAASGSTFYNYAMGWYIQAPGKEREFVATISFSGGSTYYADSVKGRFTISRDNAKNTVYLQMNSLKPEETAVYYCAARALTRKATGYYLTDYWGQGTQVTVSS = high polyreactivity
• QVQLEESGGGLVQAGGSLRLSCAGSGRIFAYYPMGWYRQAPGKERELVAAISRSGVSTYYADSVKGRFTISRDNAKNTVYLQMNSLKPEDTAVYYCAATYWRRGGYRMEYWGQGTQVTVSS = low polyreactivity
• QVQLVESGGGLVQAGGSLRLSCAPSGRIFTGYAMGWYRPEPGQEWELVAASTSSGGSTYYADSVKGRVTISRDYAKNTVYLQMNSLKPEDTAVYYCNKVGRPRYNYWGQGTEVTVSS = high polyreactivity
• QVQLVESGGGLVQAGGSLRLSCAASGSTFFLYAMGWYRQAPGKERELVASITDGGSTNYADSVKGRFTISRDNAKNTVYLQMNSLKPEDTAVYYCAKDYIHFSHKYDYWGQGTQVTVSS = low polyreactivity

I am curious: what polyreactivity (PSR sort gate) value has been reported for QVQLVESGGGLVQAGGSLRLSCAASGITFIPNAMGWYRQAPGKERELVAAISISGGRTYYADSVKGRFTISRDNAKNPVYLQMNSLKPEDTAVYYCAADRADFFVIRTIDPYDYWGQGTQVTVSS ? low polyreactivity
